test system: HepG2; test: Cytotoxicity against human HepG2 cells by MTT assay; type: functional, cell-based; conditions: read-out: pIC50 (converted)
Can you tell me IC50 for the items I'm about to list?
The reply must contain the numeric value and, after it, the unit.

Some solved cases for reference:
CCCCCCCCOc1ccc2c3ccnc(C)c3n(CCCc3ccccc3)c2c1	105 µM
CCCCn1c2cc(OC(C)C)ccc2c2ccnc(C)c21	30.2 µM
CCCCn1c2cc(O)ccc2c2ccnc(C)c21	81.3 µM
CCCCn1c2ccccc2c2cc(C(=O)O)nc(-c3cc(OC)c(OC)c(OC)c3)c21	209 µM
CCCCn1c2ccccc2c2cc(C(=O)NCCN)nc(C)c21	21.9 µM
CCCCOc1ccc2c3ccnc(C)c3n(CCCC)c2c1	15.5 µM

Below is a list of molecules. For each, state its recorded IC50.
1. Cc1c2[nH]c3ccccc3c2cc[n+]1Cc1ccccc1
2. CCn1c2cc(OCc3c(F)c(F)c(F)c(F)c3F)ccc2c2ccnc(C)c21
3. CCOC(=O)c1cc2c([nH]c3ccccc32)c(C)[n+]1Cc1ccccc1
4. CCCCCCCCOc1ccc2c3cc[n+](Cc4ccccc4)c(C)c3n(CCCc3ccccc3)c2c1
5. Cc1nc(C(=O)NCCN)cc2c3ccccc3n(Cc3ccccc3)c12
6. COc1ccc2c(c1)[nH]c1c(C)[n+](Cc3ccccc3)ccc12

69.2 µM
234 µM
52.5 µM
3.89 µM
34.7 µM
55 µM

I would be grateful if you could provide IC50 for each of the following entries.
1. CCCCOc1ccc2c3cc[n+](Cc4ccccc4)c(C)c3n(CC(C)C)c2c1
2. CCCCOc1ccc2c3ccnc(C)c3n(CC(C)C)c2c1
3. NCCCCCCNC(=O)c1cc2c3ccccc3n(Cc3ccccc3)c2cn1
4. Cc1c2[nH]c3ccccc3c2cc[n+]1CCCc1ccccc1

1. 1.82 µM
2. 12 µM
3. 58.9 µM
4. 33.1 µM

Hi! Can you tell me IC50 for each of these molecules?
1. NCCNC(=O)c1cc2c3ccccc3n(Cc3ccccc3)c2cn1
2. CCn1c2cc(OCc3c(F)c(F)c(F)c(F)c3F)ccc2c2cc[n+](Cc3ccccc3)c(C)c21
3. Cc1nccc2c3ccc(O)cc3n(CCCc3ccccc3)c12
4. Cc1nccc2c3ccc(OCc4c(F)c(F)c(F)c(F)c4F)cc3n(CCCc3ccccc3)c12
5. CCOC(=O)c1cc2c([nH]c3ccccc32)c(-c2cc(OC)c(OC)c(OC)c2)n1
6. CCCCn1c2ccccc2c2cc(C(=O)NCCO)nc(C)c21

105 µM
1.58 µM
28.2 µM
148 µM
166 µM
141 µM
